# GI50 per entry
system: PC-3; assay: NCI tumour cell line growth inhibition, 48 h
Calls of active or inactive are those of the source. Rule as the data show it: active = GI50 up to about 1.1 µM and inactive = higher.

Answered examples (4):
Cc1nc(Nc2ccccc2Cl)sc1C(=O)CC(=O)C(=O)Nc1c(Cl)cccc1Cl	27.3 µM (inactive)
CCN1C(=O)C(=Cc2ccc(-c3ccccc3)cc2)C(=O)N(CC)C1=S	> 100 µM (inactive)
O=C1C2C=CC1C1C(=O)OC(=O)C21 (stereo unspecified)	> 100 µM (inactive)
N#CC1C(=O)NC23CCCCC2C1c1ccccc1O3 (stereo unspecified)	> 100 µM (inactive)

Can you share its GI50? I mean this compound: C/C(=N\O)C1CC(CC(=O)O)C1(C)C (stereo unspecified)
> 100 µM (inactive)

Can you share its GI50? I mean this compound: CC(=O)N1c2ccccc2C2=NN=C(N(C)C)SC21 (stereo unspecified)
2.84 µM (inactive)

Can you share its GI50? I mean this compound: COc1ccc(N[S+]([O-])c2ccc(-c3ccccc3)cc2)cc1 (stereo unspecified)
22.3 µM (inactive)

Can you share its GI50? I mean this compound: Cc1ccc2cccc3c2c1CC1(C3=O)S(=O)(=O)OCCOS1(=O)=O
> 100 µM (inactive)

Can you share its GI50? I mean this compound: C1COC2SC3=C(SC(=C4SC5=C(SCCS5)S4)S3)SC2O1 (stereo unspecified)
> 100 µM (inactive)

Can you share its GI50? I mean this compound: Cc1ccc2c(c1)C(=C(C#N)C#N)CCCS2(=O)=O
> 100 µM (inactive)

Can you share its GI50? I mean this compound: CN1N=C(c2ccccc2)C(C(c2ccccc2[N+](=O)[O-])C2C(=O)N(C)N=C2c2ccccc2)C1=O (stereo unspecified)
67.5 µM (inactive)

---

system: OVCAR-3; test: NCI tumour cell line growth inhibition, 48 h
Active and inactive are the calls of the source. No stated cut-off is given here; in the data, active = GI50 up to about 1.1 µM and inactive = higher.
readout.name: GI50

Answered examples (5):
COc1ccc(/C=C2/C[N+](C)(C)C/C(=C/c3ccc(OC)cc3)C2=O)cc1	30 µM (inactive)
Cc1ccc(O)c(-c2csc(NCN3CCN(CNc4nc(-c5cc(C)ccc5O)cs4)CC3)n2)c1	> 100 µM (inactive)
NC(=O)n1ncc(Cl)c(Cl)c1=O	> 100 µM (inactive)
Cc1cccc2sc(NC(=O)NS(=O)(=O)n3cnc4ccccc43)nc12	22.3 µM (inactive)
CC(=O)O[C@H]1C[C@@H](OC(C)=O)[C@@](C)(O)[C@@H]2[C@@H](OC(C)=O)[C@@]3(O)[C@H](/C=C(/CO)[C@H]4O[C@H]4[C@@H](OC(C)=O)[C@@]12C)OC(=O)[C@@H]3C	5.51 µM (inactive)

Please state recorded GI50 (tested on OVCAR-3) of CC(=O)C1=CSC2[C@H](NC(=O)Cc3ccccc3)C(=O)N2C1C(=O)OC(c1ccccc1)c1ccccc1 (stereo partly drawn)
> 100 µM (inactive)

Please state recorded GI50 (tested on OVCAR-3) of CC[C@H](C)C(=O)O[C@H]1CCC=C2C=C[C@H](C)[C@H](CC[C@@H]3C[C@@H](O)CC(=O)O3)[C@H]21
30.4 µM (inactive)

Please state recorded GI50 (tested on OVCAR-3) of Cc1cc(Br)c(O)c(-c2cscn2)c1
52.5 µM (inactive)

---

tested on: UACC-257; assay: NCI tumour cell line growth inhibition, 48 h
Activity calls are given as the source filed them. Cut-off read from the data, not from the text of the source: active = GI50 up to about 1.1 µM and inactive = higher.
# GI50 per entry

Brc1ccc(/N=c2/nc3ccccn3n3nc(-c4ccccc4)cc23)cc1	48.4 µM (inactive)
CSc1ccc(NC(=O)C2c3[nH]c4ccccc4c3C3CCC(C(C)(C)C)CC3C2C(=O)O)cc1 (stereo unspecified)	34.1 µM (inactive)
CC(C)(C)OC(=O)N(CCCCNC(=O)C(F)(F)F)CCCNC(=O)C(F)(F)F	> 100 µM (inactive)
Cc1cc2c(cc1C)[n+]([O-])c(C(=O)/C=C/c1ccc(Cl)cc1)c(C)[n+]2[O-]	27.3 µM (inactive)
CCOC(=O)C1(C/C=C/CCl)CCCC1=O (stereo unspecified)	35.2 µM (inactive)
O=C(O)C(Cc1ccc(O)cn1)NC(=O)C(F)(F)F (stereo unspecified)	> 100 µM (inactive)
O=C1C2=C(CCCC2)Nc2cccc3ncn1c23	> 100 µM (inactive)
O=C1C=CC(=NNc2ccccc2)C=CC1=O	18.8 µM (inactive)

Can you share its GI50? I mean this molecule: CCN(CC)CCOc1ccc(N2Cc3cc(OC)c(OC)cc3C2=O)cc1
> 100 µM (inactive)

Can you share its GI50? I mean this molecule: NC(=O)c1ccccc1NC(=O)C(=O)C(C(=O)c1ccc2ccccc2c1)C1OC(=O)c2ccccc21 (stereo unspecified)
13.3 µM (inactive)

Can you share its GI50? I mean this molecule: O=C(O)Cn1ccc(=O)c2ccc([N+](=O)[O-])cc21
> 100 µM (inactive)

Can you share its GI50? I mean this molecule: O=C1CCC2(O)C3Cc4ccc(Oc5nnnn5-c5ccccc5)c5c4C2(CCN3CC2CC2)C1O5 (stereo unspecified)
28.2 µM (inactive)

Can you share its GI50? I mean this molecule: Clc1ccccc1C1=NN(c2ccccc2)C2c3ccccc3OCC12 (stereo unspecified)
79.3 µM (inactive)

Can you share its GI50? I mean this molecule: BrC12c3ccccc3Sc3ccccc3C1(Br)c1ccccc12 (stereo unspecified)
22.3 µM (inactive)

Can you share its GI50? I mean this molecule: Cc1nc(Nc2ccc([N+](=O)[O-])cc2)sc1C(=O)/C=C/c1ccc(N(C)C)cc1
81.3 µM (inactive)
